The molecules listed here are annotated with their pIC50.
# test.target: human TLR7 (Homo sapiens)
# Sequence (Q9NYK1 27-1049): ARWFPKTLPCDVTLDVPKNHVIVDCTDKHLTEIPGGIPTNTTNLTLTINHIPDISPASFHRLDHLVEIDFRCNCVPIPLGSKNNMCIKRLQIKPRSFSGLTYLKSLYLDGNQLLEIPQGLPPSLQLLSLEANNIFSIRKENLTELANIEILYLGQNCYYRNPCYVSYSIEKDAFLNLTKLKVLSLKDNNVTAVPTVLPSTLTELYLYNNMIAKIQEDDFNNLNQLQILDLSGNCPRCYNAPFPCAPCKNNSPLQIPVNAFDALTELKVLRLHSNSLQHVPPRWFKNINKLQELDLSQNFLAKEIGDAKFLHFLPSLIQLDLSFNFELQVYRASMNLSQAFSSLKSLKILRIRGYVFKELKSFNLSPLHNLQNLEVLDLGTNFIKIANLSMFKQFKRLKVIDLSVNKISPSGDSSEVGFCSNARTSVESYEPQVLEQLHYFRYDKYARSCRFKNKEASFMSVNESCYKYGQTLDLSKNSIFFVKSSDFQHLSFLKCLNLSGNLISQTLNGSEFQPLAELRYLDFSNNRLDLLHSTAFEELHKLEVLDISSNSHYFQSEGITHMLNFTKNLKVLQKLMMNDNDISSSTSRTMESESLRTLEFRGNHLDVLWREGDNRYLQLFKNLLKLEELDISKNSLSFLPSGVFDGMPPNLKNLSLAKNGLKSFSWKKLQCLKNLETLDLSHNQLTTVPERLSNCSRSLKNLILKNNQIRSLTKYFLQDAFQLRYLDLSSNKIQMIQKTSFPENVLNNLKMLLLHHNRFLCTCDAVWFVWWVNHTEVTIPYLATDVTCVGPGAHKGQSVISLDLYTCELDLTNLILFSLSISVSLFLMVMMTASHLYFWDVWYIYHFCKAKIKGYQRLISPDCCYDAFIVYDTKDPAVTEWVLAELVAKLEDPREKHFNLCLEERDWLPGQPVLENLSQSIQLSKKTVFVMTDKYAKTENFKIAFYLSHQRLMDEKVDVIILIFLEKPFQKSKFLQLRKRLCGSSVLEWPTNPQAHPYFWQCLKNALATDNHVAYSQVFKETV
# assay.name: HEK293-Blue-hTLR-7 cells assay
# condition.notes: HEK293-Blue-hTLR7 cells, R848 stimulation, 20 hrs, SEAP reporter; read-out: HEK/hTLR7 IC50
pIC50 here is simply -log10 of the concentration when that concentration is written in mol/L.

Examples from the recorded data:
- CO[C@@H]1CN(c2nccc(N3CCN4[C@@H](C3)CN(c3ccc(C#N)c5ncccc35)C[C@H]4C)n2)C[C@H]1N [Example 36]: 7.89
- C[C@@H]1CN(c2ccc(C#N)c3ncccc23)C[C@@H]2CN(Cc3ccnc(N4CCNCC4)c3)CCN21 (relative stereo) [Example 3]: 7.70
- Cc1cc(N2CCNCC2)cnc1N1CCN2[C@@H](C1)CN(c1cc(=O)n(C)c3ncccc13)C[C@H]2C [Example 93]: 8.00
- Cc1nc(N2CCNC[C@@H]2C)ccc1CN1CCN2[C@@H](C1)CN(c1ccc(C#N)c3ncccc13)C[C@H]2C [Example 85]: 7.72
- CO[C@@H]1CN(c2nc(C)cc(N3CCN4[C@@H](C3)CN(c3ccc(C#N)c5ncccc35)C[C@H]4C)n2)C[C@H]1N [Example 45]: 7.74

Look up and state reported pIC50 for C[C@@H]1CN(c2ccc(C#N)c3ncccc23)C[C@@H]2CN(CCc3ccc(N4CCNCC4)nc3)CCN21 [Example 11]
8.15

Look up and state reported pIC50 for [2H]c1ccc2c(N3C[C@@H]4CN(Cc5cnc(N6C[C@@H]7C[C@H]6CN7)cc5C)CCN4[C@H](C)C3)ccc(C#N)c2n1 [Example 94]
7.60

Look up and state reported pIC50 for CO[C@@H]1CN(c2ccc(CCN3CCN4[C@@H](C3)CN(c3ccc(C#N)c5ncccc35)C[C@H]4C)cc2)C[C@H]1N [Example 26]
7.74

Look up and state reported pIC50 for Cc1cc(N2CCN3[C@@H](C2)CN(c2ccc(C#N)c4ncccc24)C[C@H]3C)nc(N2CCNCC2)n1 [Example 31]
7.66

Look up and state reported pIC50 for [2H]c1ccc2c(N3C[C@@H]4CN(c5ccc([C@H]6CNCCO6)cc5)CCN4[C@@H](C)C3)ccc(C#N)c2n1 [Example 107]
8.52

Look up and state reported pIC50 for Cc1cc(N2CCOC[C@H](N)C2)ncc1N1CCN2CCN(c3ccc(C#N)c4ncccc34)CC2C1 (some centres unmarked) [Example 46]
7.85

Look up and state reported pIC50 for C[C@@H]1CN(c2ccc(C#N)c3ncccc23)C[C@@H]2CN(Cc3cccc(N4CCNCC4)n3)CCN21 [Example 27]
7.68

Look up and state reported pIC50 for Cc1nc(N2CCNCC2)ccc1CN1CCN2[C@@H](C1)CN(c1ccc(C#N)c3ncccc13)C[C@H]2C [Example 60]
8.10

Look up and state reported pIC50 for C[C@@H]1CN(c2ccc(C#N)c3ncccc23)C[C@@H]2CN(Cc3ccc4c(c3)CCNC4)CCN21 [Example 10]
7.59

Recorded values, source patent US20220340597A1.
